Here the recorded IC50 is given for each entry.
Target: DRB1*0405 (DR4w15) (Homo sapiens, UniProt P01903+P01911, A100R/A169T/D86S/F76Y/I96L/K127E/L162R/M171V/N62H/P40V/Q125Y/R42H/S133A/S149N/S66Y/V115G/V209L/W38E)
Construct: Epstein-Barr virus (EBV) transformed homozygous cell lines were used as sources; endogenous in cells; host or cells: KT3 (EBV-transformed homozygous B cell line)
Experiment: biochemical
Assay type: binding
Settings: Binding Capacity (IC50% nM) DR4w15
No end group written: not given here.
observedProperty: IC50 (nM)

[[record]]
sequencerecord = "GPPTALRSFGFAFGYM [Peptide 1136.29]"
observedproperty = "IC50"
relationaloperator = "="
assayresult = 745

[[record]]
sequencerecord = "QEIDPLSYNYIPVNSN [Peptide 1136.55]"
observedproperty = "IC50"
relationaloperator = "="
assayresult = 271

[[record]]
sequencerecord = "LFHYYFLSEKAPGSTV [Peptide 1136.04]"
observedproperty = "IC50"
relationaloperator = "="
assayresult = 563

[[record]]
sequencerecord = "LAAIIFLFGPPTALRS [Peptide 1136.28]"
observedproperty = "IC50"
relationaloperator = "="
assayresult = 6670

[[record]]
sequencerecord = "RVYQEPQVSPPQRAET [Peptide 1136.59.01a]"
observedproperty = "IC50"
relationaloperator = "="
assayresult = 3140

[[record]]
sequencerecord = "WLFPRFKFVWVTYASW [Peptide 1136.44.01]"
observedproperty = "IC50"
relationaloperator = "="
assayresult = 6550

[[record]]
sequencerecord = "LWWSTMYLTHHYFVDL [Peptide 1136.46]"
observedproperty = "IC50"
relationaloperator = ">"
assayresult = 10000


###

Here the recorded IC50 is given for each entry.
Biological target: DRB1*0301 (DR3w17) (Homo sapiens, UniProt P01903+P01911, A100K/A102G/A103R/A169T/F55Y/I96L/K41T/L162R/M171V/P40S/Q125H/Q178H/Q39Y/R42S/S66N/T106N/T262R/W38E/Y61H)
Test: biochemical
Conditions: Binding Capacity (IC50% nM) DR3
observedProperty: IC50

[[record]]
compound = "CC[C@H](C)[C@H](NC(=O)[C@H](CC(C)C)NC(=O)[C@H](Cc1ccccc1)NC(=O)[C@H](CS)NC(=O)[C@@H](NC(=O)[C@H](C)NC(=O)[C@@H](N)Cc1ccccc1)[C@@H](C)O)C(=O)N1CCC[C@H]1C(=O)N[C@@H](CC(C)C)C(=O)N[C@H](C(=O)N[C@@H](CO)C(=O)N[C@@H](CCC(N)=O)C(=O)N[C@@H](Cc1ccccc1)C(=O)N[C@@H](Cc1ccccc1)C(=O)N[C@@H](CC(C)C)C(=O)N1CCC[C@H]1C(=O)O)[C@@H](C)O [Peptide 1136.14]"
observedproperty = "IC50"
assayresult = "> 10000 nM"

[[record]]
compound = "CC[C@H](C)[C@H](NC(=O)[C@H](CO)NC(=O)[C@H](CO)NC(=O)[C@H](CC(N)=O)NC(=O)[C@@H](NC(=O)[C@@H](NC(=O)[C@H](CC(N)=O)NC(=O)[C@H](Cc1ccccc1)NC(=O)[C@@H](N)C(C)C)C(C)C)C(C)C)C(=O)NCC(=O)N[C@@H](CC(C)C)C(=O)N[C@H](C(=O)N[C@@H](CCSC)C(=O)N[C@H](C(=O)N[C@@H](CC(C)C)C(=O)O)C(C)C)[C@@H](C)CC [Peptide F107.23]"
observedproperty = "IC50"
assayresult = "> 10000 nM"

[[record]]
compound = "CC(C)C[C@H](NC(=O)[C@H](Cc1c[nH]c2ccccc12)NC(=O)[C@@H](NC(=O)[C@H](Cc1ccccc1)NC(=O)[C@@H](NC(=O)[C@@H]1CCCN1C(=O)[C@H](CC(C)C)NC(=O)[C@H](C)NC(=O)[C@@H]1CCCN1C(=O)[C@H](CC(C)C)NC(=O)[C@H](Cc1ccccc1)NC(=O)[C@H](Cc1ccccc1)NC(=O)[C@H](CCC(N)=O)NC(=O)[C@H](CO)NC(=O)[C@@H](NC(=O)[C@@H](N)CC(C)C)[C@@H](C)O)C(C)C)[C@@H](C)O)C(=O)O [Peptide 1136.16]"
observedproperty = "IC50"
assayresult = "> 10000 nM"

